System: Wolbachia pipientis
Method Summary: Anti-Wolbachia Cell-Based Screen
Type: functional
Set-up: scale not given: in the data most compounds retested in dose-response had high values
Particulars: 5 µM
About 13,000 (27%) of roughly 48,000 compounds showed an effect of 50% or more. The list shows a part of the results.
Readout Kind: Percent Effect (%)
# value in %; strip the unit string

{"Compound": "c1nc(CCNc2nc(C3CC3)nc3c2CCNCC3)c[nH]1", "Target": "Wolbachia pipientis", "Percent Effect [%]": 9.275}

Indicate the recorded Percent Effect value for this compound: COCCn1cc(NCc2cn(C)nc2-c2ccncc2)cn1
0.5012

Indicate the recorded Percent Effect value for this compound: Cc1nc(N(C)C)nc(NCCc2ccccn2)c1C
85.61

====

Test system: Wolbachia pipientis
Method Summary: Anti-Wolbachia Cell-Based Screen
Type: functional
Design: scale not given: in the data most compounds retested in dose-response had high values
Particulars: 5 µM
The campaign covered roughly 48,000 compounds. About 13,000 (27%) showed an effect of 50% or more. The list shows a part of the results.
Readout Kind: Percent Effect (%)
# value in %; strip the unit string

State Percent Effect (Wolbachia pipientis) of Cc1ccsc1CNC(=O)c1ccc(N2CCNC2=O)cc1 .
1.647

State Percent Effect (Wolbachia pipientis) of CC(=O)c1cc(C(=O)N2CCC3(CC2)Nc2ccccc2NC3=O)cs1 .
16.29

State Percent Effect (Wolbachia pipientis) of COCc1csc(NC(=O)NCc2ncccc2C)n1 .
-7.53

State Percent Effect (Wolbachia pipientis) of CN(C)C(=O)COC[C@]12COC[C@H]1CN(Cc1ccoc1)C2 .
-6.231

State Percent Effect (Wolbachia pipientis) of CC(=O)N1CCCC1c1ccc(CN2CCOCC2)cn1 (configuration not stated) .
123.1

State Percent Effect (Wolbachia pipientis) of CN(C)C(=O)COC[C@]12COC[C@H]1CN(Cc1ccco1)C2.O=C(O)C(F)(F)F .
94.75

State Percent Effect (Wolbachia pipientis) of CCS(=O)(=O)NC[C@]12COC[C@H]1CN(CCc1ccccc1)C2.O=C(O)C(F)(F)F .
-14.92

State Percent Effect (Wolbachia pipientis) of Cc1ccc(CN2CCCC3(CCCCN3S(C)(=O)=O)C2)s1.O=C(O)C(F)(F)F (configuration not stated) .
-28.3

State Percent Effect (Wolbachia pipientis) of CCCC(Nc1c(C#N)c(=O)n(C)c(=O)n1C)c1ccc(F)cc1F (configuration not stated) .
-0.1424

State Percent Effect (Wolbachia pipientis) of CCN(C(=O)CN1CCN(CC(C)O)CC1)C1=CCCCC1 (configuration not stated) .
-11.46

State Percent Effect (Wolbachia pipientis) of CCCc1noc(CCC(=O)N2CCCC2Cn2cc(C)cn2)n1 (configuration not stated) .
127.2

State Percent Effect (Wolbachia pipientis) of CC1(C)Cc2c(cnn2-c2cccc(F)c2)C(NC2CCSCC2)C1 (configuration not stated) .
7.076

State Percent Effect (Wolbachia pipientis) of CCC[C@@H]1CN(C(=O)c2conc2-c2ccccc2)C[C@H]1N(C)C .
-6.905

State Percent Effect (Wolbachia pipientis) of CCNC(=O)C(C)NC(=O)Nc1ccccc1SC(F)(F)F (configuration not stated) .
-8.555

State Percent Effect (Wolbachia pipientis) of FC(F)(F)CCc1ncnn1-c1ccc2c(c1)OCO2 .
-6.748

====

List of Percent Effect values.
Tested on: Wolbachia pipientis
Method Summary: Anti-Wolbachia Cell-Based Screen
Type: functional
Design: scale not given: in the data most compounds retested in dose-response had high values
Particulars: 5 µM
In all, about 48,000 compounds went through this assay and about 13,000 (27%) showed an effect of 50% or more. The list shows a part of the results.
# value in %; strip the unit string

Examples from the recorded data:
{"Molecule": "COc1cc(C(C)NCc2c[nH]nc2C)ccc1OCCO (stereo unspecified)", "Target": "Wolbachia pipientis", "Val": -5.579}
{"Molecule": "Cc1cc(C(=O)NCc2ccnc(N(C)C)c2)c(C)o1", "Target": "Wolbachia pipientis", "Val": 4.439}
{"Molecule": "Cc1nccn1-c1cc(CNC(=O)c2ccnc(N(C)C)c2)ccn1", "Target": "Wolbachia pipientis", "Val": 25.84}

Indicate the recorded Percent Effect value for this molecule: Cc1ccc(N2CCC(c3nccn3Cc3cscn3)CC2)nn1
-11.8

Indicate the recorded Percent Effect value for this molecule: Cc1nn(C)c(C)c1C1CCCN1C(=O)CCCn1cccn1 (stereo unspecified)
12.2

Indicate the recorded Percent Effect value for this molecule: O=C(CC1CC1)N1CCC2(CCCN(CCOc3ccccc3)C2)C1.O=C(O)C(F)(F)F (stereo unspecified)
117.3

Indicate the recorded Percent Effect value for this molecule: O=C(CC1CC1)N1CCC2(CCCN(c3ncccn3)C2)CC1
-10.65

====

Tested on: Wolbachia pipientis
Method Summary: Anti-Wolbachia Cell-Based Screen
Assay type: functional
Parameters: scale not given: in the data most compounds retested in dose-response had high values
Particulars: 5 µM
In all, about 48,000 compounds went through this assay and about 13,000 (27%) showed an effect of 50% or more. This is one part of the list.
Readout Kind: Percent Effect (%)
# value in %; strip the unit string

Examples from the recorded data:
{"Molecule": "CC[C@H]1CN(S(=O)(=O)c2ccccc2)CC[C@H]1CC(=O)O", "Percent Effect / %": 3.953}
{"Molecule": "CNC(=O)C1CN(Cc2ccc(C#N)cc2F)c2ccccc2O1 (stereo unspecified)", "Percent Effect / %": -15.36}
{"Molecule": "Cc1cnn(C2CCCN(C(=O)c3c(C)oc(C)c3C)C2)c1 (stereo unspecified)", "Percent Effect / %": 2.216}
{"Molecule": "COc1ccc(OC)c(-n2cnnc2C)c1", "Percent Effect / %": -0.7087}

Indicate the recorded Percent Effect value for this molecule: Cc1cc(=O)[nH]c(NCCNC(=O)c2ccccc2N2CCCC2)n1
13.63

Indicate the recorded Percent Effect value for this molecule: Cc1noc2ncc(C(=O)N3CCCC(n4cccn4)C3)cc12 (stereo unspecified)
-8.644

Indicate the recorded Percent Effect value for this molecule: Cc1cnn(C2CCCN(C(=O)CCc3c(C)noc3C)C2)c1 (stereo unspecified)
114.5

Indicate the recorded Percent Effect value for this molecule: COc1c(CNCc2ccc(C(=O)NC3CC3)cc2)c(C)nn1C.Cl
-2.896

Indicate the recorded Percent Effect value for this molecule: COc1c(CNCc2cccc(CN(C)C)c2)c(C)nn1C.Cl
-1.675

Indicate the recorded Percent Effect value for this molecule: Cc1nn(C)c(N(C)C)c1CNCc1ccc(OCC(N)=O)cc1.Cl
3.035

Indicate the recorded Percent Effect value for this molecule: CCc1cc(=O)[nH]c(NC2CCN(S(=O)(=O)c3ccccc3)CC2)n1
74.59

====

List of Percent Effect values.
Test system: Wolbachia pipientis
Method Summary: Anti-Wolbachia Cell-Based Screen
Assay type: functional
Design: scale not given: in the data most compounds retested in dose-response had high values
Particulars: 5 µM
The campaign covered roughly 48,000 compounds. About 13,000 (27%) showed an effect of 50% or more. The list shows a part of the results.
# value in %; strip the unit string

Examples from the recorded data:
{"Compound": "CN(C)CCNC(=O)c1noc2c1CN(C(=O)N(C)C)CC2", "Target": "Wolbachia pipientis", "Value Units": "%", "Percent Effect": 9.564}
{"Compound": "CN1C[C@@H](n2cnc(-c3ccccc3)c2-c2nccn2C)C[C@H]1C(=O)O", "Target": "Wolbachia pipientis", "Value Units": "%", "Percent Effect": -7.865}
{"Compound": "CSCCc1c(-c2ccccc2)ncn1CCNc1cccnc1", "Target": "Wolbachia pipientis", "Value Units": "%", "Percent Effect": -1.445}

Indicate the recorded Percent Effect value for this compound: O=C(c1cccnc1)N1CCOC(CCCc2ccccc2)C1 (centres undefined)
4.666

Indicate the recorded Percent Effect value for this compound: Cc1nc(N)cc(C2CN(C(=O)c3ccn(C)n3)CCO2)n1 (centres undefined)
-11.99

Indicate the recorded Percent Effect value for this compound: Cn1ccc(C(=O)N2CCOC(c3ccc(C(N)=O)cn3)C2)n1 (centres undefined)
91.81

Indicate the recorded Percent Effect value for this compound: COCCCC1(CO)CCCN(CCS(C)(=O)=O)C1 (centres undefined)
-5.665

Indicate the recorded Percent Effect value for this compound: O=C(c1cc2cccc(F)c2[nH]1)N1C[C@@H](O)[C@H](N2CCOCC2)C1
110.4

====

List of Percent Effect values.
System: Wolbachia pipientis
Method Summary: Anti-Wolbachia Cell-Based Screen
Type: functional
Design: scale not given: in the data most compounds retested in dose-response had high values
Particulars: 5 µM
About 13,000 (27%) of roughly 48,000 compounds showed an effect of 50% or more. This is one part of the list.
# value in %; strip the unit string

Examples from the recorded data:
{"Compound": "Cc1cc(NC(=O)CNC(C)(C)c2ccc3c(c2)OCO3)on1", "Target": "Wolbachia pipientis", "Readout Kind": "Percent Effect", "Value Units": "%", "Val": 4.007}
{"Compound": "Cc1nc(CN2C[C@@H]3CN(C(=O)c4cnccn4)C[C@@H]3C2)cs1.O=C(O)C(F)(F)F", "Target": "Wolbachia pipientis", "Readout Kind": "Percent Effect", "Value Units": "%", "Val": 0.3524}
{"Compound": "CCc1nccn1C1CCCN(C(=O)c2ccc(N(C)C)nn2)C1 (configuration not stated)", "Target": "Wolbachia pipientis", "Readout Kind": "Percent Effect", "Value Units": "%", "Val": 8.431}
{"Compound": "O=C(c1ccc(OCC2CC2)nc1)N1CCCC(n2cncn2)C1 (configuration not stated)", "Target": "Wolbachia pipientis", "Readout Kind": "Percent Effect", "Value Units": "%", "Val": -8.592}
{"Compound": "CC(C)(NCc1cccc(O)c1)c1ccc2c(c1)OCO2", "Target": "Wolbachia pipientis", "Readout Kind": "Percent Effect", "Value Units": "%", "Val": 4.523}

Indicate the recorded Percent Effect value for this compound: Cc1cc(NC(=O)CN(CC(C)O)c2ccccc2)on1 (configuration not stated)
-1.303

Indicate the recorded Percent Effect value for this compound: O=C(NCC(O)c1ccc(F)cc1F)c1ccccc1 (configuration not stated)
4.07

Indicate the recorded Percent Effect value for this compound: COC(=O)c1oc(CNC(C)(C)c2ccc3c(c2)OCO3)cc1C
-12.91

Indicate the recorded Percent Effect value for this compound: CC(C)(NCC(=O)NCC1CC1)c1ccc2c(c1)OCCO2
87.25

Indicate the recorded Percent Effect value for this compound: Cc1nc(C)n(C2CCCN(C(=O)c3ccc(N(C)C)nn3)C2)n1 (configuration not stated)
-4.997

Indicate the recorded Percent Effect value for this compound: O=C(NCC[S+]([O-])c1ccccc1)NCC(F)(F)F (configuration not stated)
-2.779

Indicate the recorded Percent Effect value for this compound: Cc1nccn1C1CCCN(C(=O)c2ccc(N(C)C)nn2)C1 (configuration not stated)
121.5
